Each recorded value in this set is attributed to ChEMBL document CHEMBL1138641.

Tested on: Beta-TC6
Assay: Concentration required for inhibition of glucose stimulated insulin release from beta TC6 cells
Format: functional, cell-based, Mus musculus
Conditions: Mus musculus, Beta-TC6; read-out: IC50
pIC50: −log10 of the molar value.
Property measured: pIC50

{"Smiles entry": "COc1ccc(Oc2ccc([N+](=O)[O-])cc2C(=O)N(C)c2ccc(Cl)cc2)cc1", "Target under test": "Beta-TC6", "Value measured": 4.59}
{"Smiles entry": "CC(C)NC1=NS(=O)(=O)c2cc(Cl)ccc2N1", "Target under test": "Beta-TC6", "Value measured": 6.34}
{"Smiles entry": "COc1ccc(Oc2ccc([N+](=O)[O-])cc2C(=O)Nc2cccc(S(N)(=O)=O)c2)cc1", "Target under test": "Beta-TC6", "Value measured": 4.69}
{"Smiles entry": "CCN(C(=O)c1cc([N+](=O)[O-])ccc1Oc1ccc(OC)cc1)c1ccc(Cl)cc1", "Target under test": "Beta-TC6", "Value measured": 4.98}
